- Tested on: OVCAR-3 ovarian
- PROTOCOL_DESCRIPTION: NCI tumour cell line growth inhibition, 48 h
MEASURED_ENDPOINT: TGI

- STRUCTURE_AS_SMILES: "CC(C)[C@@H](COC(C)(C)C)N=CN1CCc2c([nH]c3ccccc23)C1"
  TGI: "> 100 µM"
- STRUCTURE_AS_SMILES: "CC(C)CNC(=O)Cn1c2c(c3ccccc31)CCCC2"
  TGI: "> 100 µM"

Let us examine a further case.
Short answer for O=[N+]([O-])c1ccc(N=NN2CCCC2)cc1 : TGI was > 100 µM

* * *

Each record here notes measured TGI.
- System: TK-10 renal
- PROTOCOL_DESCRIPTION: NCI tumour cell line growth inhibition, 48 h

Before answering, review these 2 worked examples.
- COMPOUND: "CO[C@@H](c1ccccc1)[C@H](O)[C@](O)(c1ccccc1)P(=O)(OC)OC"
  TGI: "> 100 µM"
- COMPOUND: "C=C(N=[N+]=[N-])c1cn(C2CC(O)C(CO)O2)c(=O)[nH]c1=O (stereo not drawn)"
  TGI: "> 100 µM"

Let us examine a further case.
Short answer for CCOc1ccc(NC(=O)CC2SC(N)=NC2=O)cc1 (stereo not drawn) : TGI was > 100 µM

* * *

Each record here notes measured TGI.
- System: DMS 273 small cell lung
- PROTOCOL_DESCRIPTION: NCI tumour cell line growth inhibition, 48 h

Before answering, review these 5 worked examples.
- COMPOUND: "O=C(Nc1ccc([N+](=O)[O-])cc1)C(=O)C(C(=O)c1ccccc1F)C1OC(=O)c2ccccc21 (stereo unspecified)"
  TGI: "> 100 µM"
- COMPOUND: "FC(F)(F)c1ccc2nc(Nc3ccc(Cl)c(Cl)c3)c(-c3ccccc3)nc2c1"
  TGI: "> 100 µM"
- COMPOUND: "N#Cc1ccccc1NC(=O)c1ccccc1"
  TGI: "> 100 µM"
- COMPOUND: "CCC1=CC2CC(C(=O)OC)C1(N(C)C)C2=O (stereo unspecified)"
  TGI: "> 100 µM"
- COMPOUND: "COC(=O)C(=O)C(C(=O)C=C(C)C)C(=O)C(=O)Nc1cccc(C(C)=O)c1 (stereo unspecified)"
  TGI: "> 100 µM"

Let us examine a further case.
Short answer for CC(C)[C@@H](COC(C)(C)C)N=CN1CCc2c([nH]c3ccccc23)C1 : TGI was > 100 µM

* * *

Each record here notes measured TGI.
- Test system: OVCAR-3 ovarian
- PROTOCOL_DESCRIPTION: NCI tumour cell line growth inhibition, 48 h

Before answering, review these 2 worked examples.
- STRUCTURE_AS_SMILES: "O=C1CCc2cc3c(cc21)CC1(Cc2ccccc2C1)C3"
  TGI: "> 80.8 µM"
- STRUCTURE_AS_SMILES: "O=C(O)C/C(=C\\c1ccccc1)C(=O)O"
  TGI: "> 100 µM"

Let us examine a further case.
Short answer for CCOC(=O)N1CCN(C(=O)Nc2cccc3ccccc23)CC1 : TGI was > 10 µM

* * *

- Test system: OVCAR-3 ovarian
- PROTOCOL_DESCRIPTION: NCI tumour cell line growth inhibition, 48 h
MEASURED_ENDPOINT: TGI

Before answering, review these 2 worked examples.
- COMPOUND: "Fc1ccc(Nc2nccc(-c3c(-c4ccc(C(F)(F)F)cc4)nn4ncccc34)n2)cc1F"
  MEASURED_ENDPOINT: "TGI"
  OBSERVED_RESULT: "> 25 µM"
- COMPOUND: "COC1CC(n2cnc3c(N)ncnc32)OC1CO (stereo not drawn)"
  MEASURED_ENDPOINT: "TGI"
  OBSERVED_RESULT: "> 100 µM"

Let us examine a further case.
Short answer for CC1CC/C(=C\c2ccc(N(C)C)cc2)C(=O)/C1=C/c1ccc(N(C)C)cc1 (stereo not drawn) : TGI was > 100 µM

* * *

- System: HT29 colon
- PROTOCOL_DESCRIPTION: NCI tumour cell line growth inhibition, 48 h
MEASURED_ENDPOINT: TGI

- COMPOUND: "CC(CCCOC(c1ccccc1)(c1ccccc1)c1ccccc1)OC(=O)Nc1cc([N+](=O)[O-])cc([N+](=O)[O-])c1 (stereo unspecified)"
  TEST_SYSTEM: "HT29 colon"
  OBSERVED_RESULT: "> 100 µM"
- COMPOUND: "CCOC(=O)CN1CCSC1=NC#N"
  TEST_SYSTEM: "HT29 colon"
  OBSERVED_RESULT: "> 100 µM"
- COMPOUND: "CC1=CC(=O)C(C(C)=Nc2ccccc2Cl)C(=O)O1 (stereo unspecified)"
  TEST_SYSTEM: "HT29 colon"
  OBSERVED_RESULT: "> 100 µM"
- COMPOUND: "Cc1ncc([N+](=O)[O-])n1CCNC(=O)CCCn1cnc([N+](=O)[O-])n1"
  TEST_SYSTEM: "HT29 colon"
  OBSERVED_RESULT: "> 100 µM"
- COMPOUND: "O=C1c2ccccc2C(=O)C1C(c1ccc([N+](=O)[O-])cc1)C1C(=O)c2ccccc2C1=O"
  TEST_SYSTEM: "HT29 colon"
  OBSERVED_RESULT: "> 100 µM"

Short answer for N=c1oc2ccc(Cl)cc2cc1C(=O)Nc1ccccc1 : TGI was > 100 µM

Short answer for Cc1cc(C)c(C)c(-n2[nH]c(=O)n(C)c2=O)c1C : TGI was > 100 µM

Short answer for NC(N)=NC(N)=Nc1c(F)c(F)c(F)c(F)c1F : TGI was > 100 µM

Short answer for CC(C)(Br)C(=O)/C=C/c1ccccc1 : TGI was 18.3 µM

Short answer for CC1CC/C(=C\c2ccc(N(C)C)cc2)C(=O)/C1=C/c1ccc(N(C)C)cc1 (stereo unspecified) : TGI was > 100 µM

Short answer for Cc1c(C)c2ccc(OC/C=C3\CCC(=O)O3)cc2oc1=O : TGI was 35.3 µM

Short answer for c1ccc2c(c1)CCN2CCc1c[nH]c2ccccc12 : TGI was > 10 µM

Short answer for CC(C)=CC(=O)CC(=O)C(=O)Nc1ccc(Cl)c(Cl)c1 : TGI was > 100 µM

Short answer for Cc1c2cnccc2nc2[nH]c3ccncc3c12 : TGI was > 100 µM

Short answer for Cc1cccc(C)c1NC(=O)CCCC(=O)C1CC(=O)CCC1=O (stereo unspecified) : TGI was > 100 µM

* * *

- System: 786-0 renal
- PROTOCOL_DESCRIPTION: NCI tumour cell line growth inhibition, 48 h
MEASURED_ENDPOINT: GI50

Before answering, review these 5 worked examples.
- COMPOUND: "Cc1c(C)c2ccc(OC/C=C3\\CCC(=O)O3)cc2oc1=O"
  GI50: "5.35 µM"
- COMPOUND: "Cc1ccc2c(c1)ncn2-c1ncnc2c1CC(C)c1ccccc1N2C (centres undefined)"
  GI50: "0.487 µM"
- COMPOUND: "CC1=CC(=O)C(C(C)=Nc2ccccc2Cl)C(=O)O1 (centres undefined)"
  GI50: "> 100 µM"
- COMPOUND: "C[C@H](CS(C)(=O)=O)Nc1ncc2cc(Oc3ccc(F)cc3F)c(=O)n(C)c2n1"
  GI50: "> 25 µM"
- COMPOUND: "COc1ccc(/C=C2\\CCCC3=C2NC(C)=NC3c2ccc(OC)c(OC)c2)cc1OC (centres undefined)"
  GI50: "33.7 µM"

Short answer for Fc1ccc(Nc2nc(NCCNc3ccnc4cc(Cl)ccc34)nc(N3CCOCC3)n2)cc1 : GI50 was 3.35 µM

Short answer for O=c1oc2ccc(Cl)cc2c(=O)n1-c1ccc(I)cc1F : GI50 was 1.36 µM

Short answer for Clc1ccc2nc(Oc3ccccc3)cnc2c1 : GI50 was > 100 µM

Short answer for Nc1nc(Nc2cccc(F)c2)nc2ccccc12 : GI50 was 17.4 µM

* * *

Each record here notes measured TGI.
- Tested on: NCI-H23 lung
- PROTOCOL_DESCRIPTION: NCI tumour cell line growth inhibition, 48 h

Before answering, review these 2 worked examples.
- MOLECULE: "CN(C)Cc1cc(N=Nc2ccccc2Cl)cc(CN(C)C)c1O"
  MEASURED_ENDPOINT: "TGI"
  OBSERVED_RESULT: "> 100 µM"
- MOLECULE: "CC(=O)NC(CCCN(Cc1ccccc1)C(=O)N(CCCl)N=O)C(=O)NCc1ccccc1 (stereo unspecified)"
  MEASURED_ENDPOINT: "TGI"
  OBSERVED_RESULT: "> 75.1 µM"

Short answer for CCN1C(=O)N(CC)C2C1NN=c1s/c(=C3\C(=O)N(C)c4ccccc43)c(=O)n12 (stereo unspecified) : TGI was > 88.1 µM

* * *

- System: CAKI-1 renal
- PROTOCOL_DESCRIPTION: NCI tumour cell line growth inhibition, 48 h
MEASURED_ENDPOINT: TGI

Before answering, review these 2 worked examples.
- STRUCTURE_AS_SMILES: "CCOC(=O)CN1CCSC1=NC#N"
  TGI: "> 100 µM"
- STRUCTURE_AS_SMILES: "Cc1cc(NS(=O)(=O)c2ccc(Nc3c4ccccc4nc4ccc(C(=O)Nc5ccc(S(=O)(=O)N=C(N)N)cc5)cc34)cc2)no1"
  TGI: "> 100 µM"

Let us examine a further case.
Form field TGI for item CSc1nc(-c2ccccc2)c2c(n1)-c1ccccc1CC2 on CAKI-1 renal: > 100 µM
